assay: Inhibition of Haemophilus influenzae NAD+-dependent DNA ligase A
Assay endpoint: pIC50
Answers are plain numbers, as −log10 of the molar value.

Item: `CC(C)(C)c1nc(-c2ccc[nH]2)c2cc(C(N)=O)c(N)nc2n1` | pIC50: 7.00

Ref: ChEMBL document CHEMBL3860096
